System: MOLT-4 leukemia
Experiment: NCI tumour cell line growth inhibition, 48 h
experimental.endpoint: TGI

{"columns": ["molecule", "TGI"],
 "data": [
  ["COc1ccc(/C=C(\\C#N)c2cc(OC)c3c(c2)OCO3)cc1", "> 100 µM"],
  ["O=C(c1ccc(Cl)cc1)N(C(=S)N1CCN(c2ccccc2)CC1)c1ccccc1", "> 100 µM"],
  ["O=C(/C(Cl)=C/c1ccccc1)c1ccccc1", "> 21.3 µM"]
]}

Task item: Give the value of TGI reported for the following: C/C=C/OC1C(C2COC(C)(C)O2)OC2OC(C)(C)OC21 (stereo unspecified)
Reply: > 100 µM

Task item: Supply reported TGI belonging to this molecule: CN(/N=N/c1nc(OCc2ccccc2)c2[nH]cnc2n1)C(=O)N(C)/N=N/c1nc(OCc2ccccc2)c2[nH]cnc2n1
Reply: > 100 µM

Task item: Look up and report measured TGI for this entry: CC1(C)OC[C@@]2([C@@H]3CC[C@@H](C3)C2(C)C)N1O
Reply: > 100 µM
